Below: a set of entries, each annotated with reported melting point.
readout name: melting point

> print(dat)
                                 cpd.smiles  measured.value
1  COc1c(-c2ccc3cc(NS(C)(=O)=O)ccc3c2)cc(-n2ccc(=O)[nH]c2=O)cc1C(C)(C)CO   256 to 257 °C
2  COc1c(C#C[Si](C)(C)C)cc(-n2ccc(=O)[nH]c2=O)cc1-c1ccc2cc(NS(C)(=O)=O)ccc2c1   175 to 178 °C
3  COc1c(-c2ccc3cc(NS(C)(=O)=O)ccc3c2)cc(-n2ccc(=O)[nH]c2=O)cc1-c1ccc(C)o1   174 to 178 °C
4  COc1c(-c2ccc3cc(NS(C)(=O)=O)ccc3c2)cc(-n2ccc(=O)[nH]c2=O)cc1C(F)(F)C(F)(F)F   162 to 165 °C
5  COc1c(-c2ccc3cc(NS(C)(=O)=O)ccc3c2)cc(-n2ccc(=O)[nH]c2=O)cc1C(C)(C)C(=O)O        > 300 °C
6  CC(C)(C)c1cc(-n2ccc(=O)[nH]c2=O)cc(-c2ccc3cc(NS(C)(=O)=O)ccc3c2)c1Cl        > 280 °C
7  CCOc1c(-c2ccc3cc(NS(C)(=O)=O)ccc3c2)cc(-n2ccc(=O)[nH]c2=O)cc1C(C)(C)C   196 to 202 °C

* * *

Listed below: pIC50 values for each entry.
Molecular target: HCV polymerase 1A (Δ21 NS5B) (Hepatitis C virus genotype 1a)
Construct: 20 to 50nM Δ21 NS5B
Sequence (P27958 2421-2990, stated change not applied): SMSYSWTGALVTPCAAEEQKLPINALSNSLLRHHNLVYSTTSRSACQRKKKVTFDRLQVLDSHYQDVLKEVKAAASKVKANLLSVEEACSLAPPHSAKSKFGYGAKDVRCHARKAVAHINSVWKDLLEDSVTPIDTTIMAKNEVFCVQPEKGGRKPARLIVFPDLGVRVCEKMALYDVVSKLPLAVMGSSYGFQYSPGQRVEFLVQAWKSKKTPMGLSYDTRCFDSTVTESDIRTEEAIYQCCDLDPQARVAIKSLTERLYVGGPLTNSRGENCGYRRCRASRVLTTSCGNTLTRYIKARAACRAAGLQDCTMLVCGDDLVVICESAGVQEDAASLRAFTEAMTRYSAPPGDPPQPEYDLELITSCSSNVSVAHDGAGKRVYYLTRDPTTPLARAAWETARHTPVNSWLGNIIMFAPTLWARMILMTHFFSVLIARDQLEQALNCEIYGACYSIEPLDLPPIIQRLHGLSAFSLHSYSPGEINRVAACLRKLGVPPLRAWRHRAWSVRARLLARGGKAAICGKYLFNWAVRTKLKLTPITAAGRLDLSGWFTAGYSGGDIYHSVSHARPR
Assay: HCV Polymerase Inhibition Assay (1a)
Assay type: biochemical
pIC50: −log10 of the molar value.
readout name: pIC50

> print(dat)
                                  cpd.smiles  measured.value
 1  COc1c(-c2ccc3c(c2)CC=C3CN(C)S(C)(=O)=O)cc(-n2ccc(=O)[nH]c2=O)cc1C(C)(C)C          > 8.00
 2  COC(=O)C(C)(C)c1cc(-n2ccc(=O)[nH]c2=O)cc(-c2ccc3cc(NS(C)(=O)=O)ccc3c2)c1OC    7.00 to 8.00
 3  COc1c(-c2ccc3c(c2)CC=C3C(C)(C)NS(C)(=O)=O)cc(-n2ccc(=O)[nH]c2=O)cc1C(C)(C)C    6.00 to 7.00
 4  COc1c(-c2ccc3c(c2)CCN(NS(C)(=O)=O)C3)cc(-n2ccc(=O)[nH]c2=O)cc1C(C)(C)C    6.00 to 7.00
 5  COc1c(-c2ccc3nc(NS(C)(=O)=O)sc3c2)cc(-n2ccc(=O)[nH]c2=O)cc1C(C)(C)C    7.00 to 8.00
 6  COc1c(-c2ccc3c(c2)CCN3S(C)(=O)=O)cc(-n2ccc(=O)[nH]c2=O)cc1C(C)(C)C    7.00 to 8.00
 7  COc1c(-c2nc3ccccc3s2)cc(N2CCC(=O)NC2=O)cc1C(C)(C)C    6.00 to 7.00
 8  COC(=O)c1cc(-n2ccc(=O)[nH]c2=O)cc(-c2ccc3cc(NS(C)(=O)=O)ccc3c2)c1OC    6.00 to 7.00
 9  COc1c(-c2nc3ccc(NS(C)(=O)=O)cc3s2)cc(N2CCC(=O)NC2=O)cc1C(C)(C)C    7.00 to 8.00
10  COc1c(-c2ccc3c(c2)CC/C3=N\NS(C)(=O)=O)cc(-n2ccc(=O)[nH]c2=O)cc1C(C)(C)C          > 8.00
11  COc1c(-c2ccc3cc(NS(C)(=O)=O)ccc3c2)cc(-n2ccc(=O)[nH]c2=O)cc1-c1ccc(C)s1    6.00 to 7.00
12  COc1c(-c2ccc3cc(NS(C)(=O)=O)ccc3c2)cc(-n2ccc(=O)[nH]c2=O)cc1C(C)(C)C          > 8.00
13  COc1c(-c2ccc3cc(NS(C)(=O)=O)ccc3c2)cc(-n2ccc(=O)[nH]c2=O)cc1C(C)(C)CO          > 8.00
14  COc1c(-c2ccc3cc(NS(C)(=O)=O)ccc3c2)cc(-n2ccc(=O)[nH]c2=O)cc1C(C)(C)C(=O)O          < 6.00
15  COc1c(Br)cc(-n2ccc(=O)[nH]c2=O)cc1-c1ccc2cc(NS(C)(=O)=O)ccc2c1    7.00 to 8.00
16  CC(C)(C)c1cc(-n2ccc(=O)[nH]c2=O)cc(-c2ccc3cc(NS(C)(=O)=O)ccc3c2)c1Cl          > 8.00
17  COc1c(-c2ccc3cc(NS(C)(=O)=O)ccc3n2)cc(-n2ccc(=O)[nH]c2=O)cc1C(C)(C)C          < 6.00
18  COc1c(-c2ccc3nc(NS(C)(=O)=O)ccc3c2)cc(-n2ccc(=O)[nH]c2=O)cc1C(C)(C)C    7.00 to 8.00
19  COc1c(NS(C)(=O)=O)cc(-n2ccc(=O)[nH]c2=O)cc1-c1ccc2cc(NS(C)(=O)=O)ccc2c1    6.00 to 7.00
20  COc1c(-c2ccsc2)cc(-n2ccc(=O)[nH]c2=O)cc1-c1ccc2cc(NS(C)(=O)=O)ccc2c1          > 8.00
21  COc1c(-c2ccc3c(c2)/C(=N/NS(C)(=O)=O)CC3)cc(-n2ccc(=O)[nH]c2=O)cc1-c1cccs1          > 8.00
22  CC(C)(C)c1cc(-c2ccc3cc(NS(C)(=O)=O)ccc3c2)cc(-n2ccc(=O)[nH]c2=O)c1    7.00 to 8.00
23  COc1c(-c2ccc3ncsc3c2)cc(-n2ccc(=O)[nH]c2=O)cc1C(C)(C)C    7.00 to 8.00
24  CCOc1c(-c2ccc3cc(NS(C)(=O)=O)ccc3c2)cc(-n2ccc(=O)[nH]c2=O)cc1C(C)(C)C    7.00 to 8.00
25  COc1c(-c2ccc3c(c2)CNC3=O)cc(-n2ccc(=O)[nH]c2=O)cc1C(C)(C)C    7.00 to 8.00
26  COc1c(-c2nc3ccc([N+](=O)[O-])cc3o2)cc(N2CCC(=O)NC2=O)cc1C(C)(C)C    6.00 to 7.00
27  COc1c(-c2nc3cc(NS(C)(=O)=O)ccc3o2)cc(N2CCC(=O)NC2=O)cc1C(C)(C)C    7.00 to 8.00
28  COc1c(-c2ccc3cc(NS(C)(=O)=O)ccc3c2)cc(-n2ccc(=O)[nH]c2=O)cc1C(F)(F)F          > 8.00
29  COc1ccc2cc(-c3cc(-n4ccc(=O)[nH]c4=O)cc(C(C)(C)C)c3OC)ccc2c1    6.00 to 7.00
